# Experimental Target: Src kinase (Homo sapiens, UniProt P12931)
# Construct: purchased Upstate Bioteolnology (sic; Upstate Biotechnology); later HMR stock 27597-019E1 #14-117
# Sequence (P12931 whole entry): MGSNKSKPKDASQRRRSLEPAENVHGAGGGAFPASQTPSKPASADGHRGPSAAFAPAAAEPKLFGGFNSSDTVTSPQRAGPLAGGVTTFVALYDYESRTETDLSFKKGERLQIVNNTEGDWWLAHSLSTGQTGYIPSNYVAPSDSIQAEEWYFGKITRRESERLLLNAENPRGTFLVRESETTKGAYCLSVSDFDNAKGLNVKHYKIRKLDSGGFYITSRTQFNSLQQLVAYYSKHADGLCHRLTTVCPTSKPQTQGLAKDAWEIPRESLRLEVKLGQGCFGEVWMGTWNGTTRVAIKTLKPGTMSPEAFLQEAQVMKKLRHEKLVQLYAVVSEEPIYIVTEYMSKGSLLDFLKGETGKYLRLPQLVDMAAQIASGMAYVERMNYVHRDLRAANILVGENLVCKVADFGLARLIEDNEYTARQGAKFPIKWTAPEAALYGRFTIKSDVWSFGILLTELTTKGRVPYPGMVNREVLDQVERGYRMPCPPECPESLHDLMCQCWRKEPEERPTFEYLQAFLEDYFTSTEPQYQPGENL
# Test Summary: Phosphorylation assay of Src kinase inhibitors (radiometric, 96 well filter plate)
# Format: biochemical
# Run Parameters: duplicates, tested in the range of 400-0.098 µM; 10 µM peptide substrate (FIYGAFKKKKNH2), 5 µM unlabeled ATP, room temperature 30 min; read-out: IC50
Listing: IC50 of selected molecules
Metric: IC50 (µM)

{"columns": ["Molecule", "Bound Type", "Recorded Result"],
 "data": [
  ["COc1ccc2cc(OCCCCNC(=O)[C@@H](N)Cc3ccc(O)cc3)c(C(=O)NCC(N)=O)cc2c1", "=", 2.5],
  ["NC(=O)CNC(=O)c1cc2ccccc2cc1OCCCCN1CCC[C@@H](c2ccccc2)[C@H](N)C1=O", "=", 6],
  ["NC(=O)CNC(=O)c1cc2ccccc2cc1OCCCNC(=O)[C@@H](N)Cc1ccc(O)cc1", "=", 45],
  ["CN[C@@H](Cc1ccccc1)C(=O)NCCCCOc1cc2ccccc2cc1C(=O)NCC(N)=O", "=", 2.3],
  ["NC(=O)CNC(=O)c1cc2ccccc2cc1OCCCCNC(=O)[C@@H](N)Cc1ccc(O)c(I)c1", "=", 0.31],
  ["CNC(=O)C(Cc1ccc(-c2noc(C)n2)cc1)C(=O)NCCCCOc1cc2ccccc2cc1C(=O)NCC(N)=O (stereo not shown)", "=", 76],
  ["NC(=O)c1cc2ccccc2cc1OCCCCNC(=O)[C@@H](N)Cc1ccc(O)cc1", "=", 47],
  ["NC(=O)CNC(=O)c1cc2ccccc2cc1NCCCCNC(=O)[C@H](N)Cc1ccc(O)cc1 (stereo in doubt)", "=", 25],
  ["NC(=O)CNC(=O)c1cc2ccccc2cc1OCCCCNC(=O)[C@H](Cc1ccc(O)cc1)NC(=O)OCc1ccccc1", "=", 32],
  ["NC(=O)CNC(=O)c1cc2ccccc2cc1OCCCCN1CCC[C@H](c2ccccc2)[C@H](N)C1=O", "=", 6],
  ["NC(=O)CNC(=O)c1cc2ccccc2cc1OCCCCNC(=O)[C@@H](N)Cc1ccc(F)cc1", "=", 0.31],
  ["N[C@@H](Cc1ccc(O)cc1)C(=O)NCCCCOc1c(O)cc(C(=O)NCC(=O)CCCO)cc1O", "≥", 500],
  ["CC(C)(C)C(=O)NCCCCOc1cc2ccccc2cc1C(=O)NCC(N)=O", "=", 6],
  ["NC(=O)CNC(=O)c1cc2ccccc2cc1OCCCCNC(=O)C1(N)Cc2ccccc2C1", "=", 12],
  ["NC(=O)CNC(=O)c1cc2ccccc2cc1NC(=O)CCCNC(=O)[C@@H](N)Cc1ccc(O)cc1 [Example 90]", "=", 209],
  ["N[C@@H](Cc1ccc(O)cc1)C(=O)NCCCOc1cc2ccccc2cc1C(=O)NCC(=O)NCCCO", "=", 45]
]}
